pIC50: −log10 of the molar value.
// compounds with pIC50 on Melanin-concentrating hormone receptor 1 (Homo sapiens, UniProt Q99705), multi-source literature
Parameter: pIC50

(P) O=c1cc(OCc2ccccc2)ccn1-c1ccc(OCCN2CCCC2)c(F)c1
(Q) COc1ccc2nc(NCCCNCc3ccsc3)cc(C)c2c1
(R) COc1cc(OC2CN(C(=O)c3nnc(-c4ccc(C(F)F)cc4)o3)C2)ccc1CN1CCCC12COC2
(S) O=C(c1nnc(-c2ccc(F)cc2)o1)N1CC(Oc2ccc(CN3CC4(COC4)C3)cc2)C1
I'd appreciate it if you could rank the compounds mentioned above by pIC50, largest value first. Hello, could you send the labels back in the order asked? Thank you.
P, Q, S, R
(P: 8.28, Q: 8.00, S: 7.62, R: 7.42)

====

// cross-study collection: IC50 for Melanin-concentrating hormone receptor 1 (Homo sapiens, UniProt Q99705)
Parameter: IC50 (nM)

O=C(c1nnc(-c2ccc(OC(F)F)cc2)o1)N1CC(Oc2ccc(CN3CC4(COC4)C3)cc2)C1	12
CSCC[C@@H]1NC(=O)[C@H](NC(=O)CCCCNC(=N)N)CSSC[C@@H](C(N)=O)NC(=O)CCCCNC(=O)CCCCNC(=O)[C@H](Cc2ccc(O)cc2)NC(=O)[C@H](C(C)C)NC(=O)[C@H](CCCNC(=N)N)NC(=O)CNC(=O)[C@H](CC(C)C)NC1=O	66
O=c1cc(OCc2ccc(F)cc2)ccn1-c1ccc(OCCN2CCCC2)cc1	5.6
Cc1cc(CN(C)C)ccc1C(=O)Cn1ncc(OCc2ccc(Cl)cn2)cc1=O	24
Cc1c(C(C)(C)O)nc2ccc(NC(=O)c3ccc(-c4ccc(C(F)(F)F)cn4)cc3)cn12	9.5
c1ccc(COc2ccc(CCc3ccc(CNCc4cccnc4)cn3)nn2)cc1	20
Cc1cc(CN2CCC(CO)CC2)ccc1C(=O)Cn1ncc(OCc2ccccc2)cc1=O	13
Cc1cc(-n2ccc(OCc3ccc(F)cc3)cc2=O)ccc1OCC(=O)OC(C)C	23
O=C(c1nnc(-c2ccccc2)o1)N1CC(Oc2ccc(CN3CCCC34CCOC4)cc2)C1 (centres unmarked)	58

(a) O=C(Cn1ccc(OCc2ccccc2)cc1=O)c1ccc(CN2CCC(O)CC2)cc1
(b) Cc1cc(CN2CCCC[C@@H]2CO)ccc1C(=O)Cn1ccc(OCc2ccccc2)cc1=O
Returns: the argument ( a or b ) having the larger IC50. // output: label of the selected item
b

====

Values of IC50 for Melanin-concentrating hormone receptor 1 (Homo sapiens), collected from a number of published sources:
Parameter: IC50 (nM)

Cc1cc(CN(C)C)ccc1C(=O)Cn1ccc(OCc2ccccc2)cc1=O	17

(I) CCN(C)CCOc1ccc(-n2ccc(OCc3ccc(Cl)cn3)cc2=O)cc1
(II) Cc1cc(CN2CCCC[C@@H]2CO)ccc1C(=O)Cn1ncc(OCc2ccccc2)cc1=O
(III) CCc1nc2ccc(NC(=O)c3ccc(OCc4ccc(F)cn4)c(F)c3)cn2c1C
# desc sort on IC50 across 3 compounds Use the labels to give the requested order.
II, I, III
(II: 13 nM, I: 5.4 nM, III: 2.2 nM)
